Exercise: state measured growth inhibition for each of the compounds provided.
- ASSAY REMARKS: NCI Yeast Anticancer Drug Screen. Data for the cln2 rad14 strain (AID 165);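 further: 0% = growth equal to vehicle treated cultures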
- RECORDED CONDITIONS: S. cerevisiae cln2 rad14 strain, at 5.0 µM (retest, dose inferred, filed as 0.5), stronger effect = higher value
About 79,000 compounds went through this panel and 15% of them were active in at least one assay; those are over-represented in the sample as a whole. Where a SMILES comes first, the peptide text is derived from it. The star is where a group is joined. Cbz = O=C(OCc1ccccc1)*
Give bare numbers, in %.

Before answering, review these 5 worked examples.
C/C(=N\NC(=S)Nc1ccc(Cl)cc1)c1nc2ncccc2[nH]1 = -38
CCCSc1n[nH]c(=S)s1 = -10
Cc1cc(OC(=O)CCl)ccc1C(C)(C)C = 5
CCOC(=O)CNC(=O)CNC(=O)CNC(=O)OCc1ccccc1 (Cbz-Gly-Gly-Gly-OEt) = -62
COC(=O)C1(Cc2ccccc2)Cc2c(C)ccc(C)c2C1=O (stereo not given) = -1

Please go through the list and note growth inhibition for each compound.
1. CCc1cccc(C(C)(C)C)c1NC(=S)N/C=C(\C#N)C(=O)c1ccc2ccccc2c1
2. O=c1c(-c2ccccc2)coc2cc(O)ccc12
3. O=C(N/C(=C\c1ccc(Oc2ccc(Cl)c(Cl)c2)cc1)c1nc2ccccc2[nH]1)c1ccccc1
4. C/C=C/C=C\C1OC(O)([C@H](CC)C(=O)NC/C=C/C=C(\C)[C@H](OC)C(C)C2OC(\C=C/C=C/C=C(\C)C(=O)c3c(O)ccn(C)c3=O)[C@H](O)[C@@H]2O)C(O)C(O)C1(C)C (stereo not given in full)
5. O=c1oc2c3ccc4ccccc4c3n(CCCN3CCCCC3)c2c2ccccc12
6. O=C(CCCN1CCC(C(O)c2ccc(F)cc2)CC1)c1ccc(F)cc1 (stereo not given)

Resp:
1: -18; 2: -12; 3: 13; 4: -14; 5: 27; 6: 47

Please go through the list and note growth inhibition for each compound.
1. CCOC(=O)NN(C(=O)OCC)c1ccc(N=Nc2ccc(OC)cc2)n1C
2. CCCC(CCC)NCCOC(=O)C(CC)c1ccccc1 (stereo not given)
3. C1=C(c2ccccc2)CCc2ccccc21
4. CN(C)c1ccccc1CCCCCCc1ccccc1N(C)C
5. CC/C(=C1\C=CC(=O)S1)C(CC)c1ccc(OC(C)=O)cc1 (stereo not given)
6. CCOC(=O)CSC(=S)N1CCOCC1
7. COc1ccc(Br)c2c1CC(C(=O)O)CC2 (stereo not given)

Resp:
29
-35
0
79
0
-5
6

Please go through the list and note growth inhibition for each compound.
1. C=Nc1ccc2ccccc2c1Cc1c(O)ccc2ccccc12
2. CS(=O)(=O)N\N=C1/C=C\C(=N/NS(C)(=O)=O)CCc2ccc(cc2)CC1
3. CCCCCCCC[N+](C)(CCCCCCCC)CCCCCCCC

Resp:
1: -8; 2: -1; 3: 71

Please go through the list and note growth inhibition for each compound.
1. CN(C)CCCSc1c2ccccc2nc2cc(NCC(=O)Nc3ccccc3-c3ccccc3NC(=O)CNc3ccc4c(SCCCN(C)C)c5ccccc5nc4c3)ccc12
2. CCC[n+]1ccnc2ccccc21

Resp:
30
13

Please go through the list and note growth inhibition for each compound.
1. O=C(N/N=C/c1cc(Cl)cc(Cl)c1O)c1ccccc1
2. CN(C)[C@H]1CC[C@H]2[C@@H]3CCC4C[C@@H](NC(=O)NC(Cc5ccccc5)c5nccs5)CC[C@]4(C)[C@H]3CC[C@]12C (stereo not given in full)

Resp:
[14, -16]

Please go through the list and note growth inhibition for each compound.
1. Fc1ccc2c(c1)Nc1cc(F)cc(F)c1S2
2. CCC1(C)OC(=O)C(c2ccccc2)O1 (stereo not given)

Resp:
1. 0
2. 2

Please go through the list and note growth inhibition for each compound.
1. O=C1OC(=O)c2cc([N+](=O)[O-])cc3cccc1c23
2. CCCOC(=O)C(S)C(S)C(=O)OCCC (stereo not given)

Resp:
22
19

Please go through the list and note growth inhibition for each compound.
1. Cc1c(CCCl)c(N=[N+]=[N-])n2c(nc3ccccc32)c1C#N
2. COC1=CC(=O)c2c(ccc3ncnc(N)c23)C1=O
3. O=P(C(=S)Nc1ccccc1Cl)(c1ccccc1)c1ccccc1
4. CCOc1ccccc1C(=O)OCc1ccccc1
5. O=C1c2ccccc2C(=O)N1/N=C\c1ccccc1[N+](=O)[O-]
6. CC1=C/C(=C\C=C2/N(C)c3c(C)cccc3C2(C)C)C(=O)c2ncccc21

Resp:
20
18
-6
23
-5
9
